Taken from patent US10919943B2.

- Test system: HAB1
- experiment-summary: Yeast two hybrid of pBD-PYR1 site saturation mutants with pACT-HAB1 on 10 μM ABA, β-galactosidase staining
- Assay type: cell-based, Arabidopsis
- Design: key: x: Mutations in PYR1 that disrupt ABA-induced binding to PYR1 to HAB1
- measurement-conditions: S. cerevisiae Y190, 10 μM ABA; dead = lack of visible staining in comparison to wild type control
measurement-label: Mutations in PYR1 that disrupt ABA-induced binding to PYR1 to HAB1

INSERT INTO measurements (molecule, result) VALUES
  ('I62Y: PYR1 mutant (protein, UniProt O49686 1-191, looked up, variant I62Y) Abscisic acid receptor PYR1: MPSELTPEERSELKNSIAEFHTYQLDPGSCSSLHAQRIHAPPELVWSIVRRFDKPQTYKHFYKSCSVEQNFEMRVGCTRDVIVISGLPANTSTERLDILDDERRVTGFSIIGGEHRLTNYKSVTTVHRFEKENRIWTVVLESYVVDMPEGNSEDDTRMFADTVVKLNLQKLATVAEAMARNSGDGSGSQVT', 'x'),
  ('P88I: PYR1 mutant (protein, UniProt O49686 1-191, looked up, variant P88I) Abscisic acid receptor PYR1: MPSELTPEERSELKNSIAEFHTYQLDPGSCSSLHAQRIHAPPELVWSIVRRFDKPQTYKHFIKSCSVEQNFEMRVGCTRDVIVISGLIANTSTERLDILDDERRVTGFSIIGGEHRLTNYKSVTTVHRFEKENRIWTVVLESYVVDMPEGNSEDDTRMFADTVVKLNLQKLATVAEAMARNSGDGSGSQVT', 'x'),
  ('H115G: PYR1 mutant (protein, UniProt O49686 1-191, looked up, variant H115G) Abscisic acid receptor PYR1: MPSELTPEERSELKNSIAEFHTYQLDPGSCSSLHAQRIHAPPELVWSIVRRFDKPQTYKHFIKSCSVEQNFEMRVGCTRDVIVISGLPANTSTERLDILDDERRVTGFSIIGGEGRLTNYKSVTTVHRFEKENRIWTVVLESYVVDMPEGNSEDDTRMFADTVVKLNLQKLATVAEAMARNSGDGSGSQVT', 'x');
